The reported numbers originate from patent US5149859A.

target: lipoxygenase (Homo sapiens); construct: heparin-treated vein blood of a healthy person without administration of a drug; from tissue; host or cells: human heparinised venous whole blood; experiment: Activity of inhibiting lipoxygenase production in human whole blood (Table 3-1); format: cell-based; conditions: 0.25 h, final 10^-5 M, A23187 25 μM, 37° C., read-out: Inhibitory ratio (%) 5-HETE
value.kind: inhibition at 10 µM (%)

Worked examples, 6 molecules total:
COC(=O)CCCC(=O)N(O)Cc1ccc2ccccc2c1 [Example 3-8] | 59
COC(=O)CCCCC(=O)N(O)c1ccc2ccccc2c1O [Example 3-4] | 38
COC(=O)CCC(=O)N(O)Cc1ccc2ccccc2c1 [Example 3-7] | 59
COC(=O)COCC(=O)N(O)c1ccc2ccccc2c1O [Example 3-6] | 18
COC(=O)CCCC(=O)N(O)Cc1ccc2ccccc2c1OC [Example 3-9] | 27
COC(=O)c1cccc(C(=O)N(O)c2ccc3ccccc3c2O)c1 [Example 3-10] | 45

1: COC(=O)CCCCCC(=O)N(O)c1ccc2ccccc2c1O [Example 3-5]
2: COC(=O)CCCC(=O)N(O)c1ccc2ccccc2c1O [Example 3-2]
INPUT: Hi, I'm comparing two records. Which one has the lower inhibition at 10 µM, 1 or 2 ? Kindly state the label of the option you pick.
OUTPUT: 1

---

Target: lipoxygenase (Homo sapiens, UniProt P09917)
Construct: heparin-treated vein blood of a healthy person without administration of a drug; from tissue; host or cells: human heparinised venous whole blood
Sequence (P09917 1-674): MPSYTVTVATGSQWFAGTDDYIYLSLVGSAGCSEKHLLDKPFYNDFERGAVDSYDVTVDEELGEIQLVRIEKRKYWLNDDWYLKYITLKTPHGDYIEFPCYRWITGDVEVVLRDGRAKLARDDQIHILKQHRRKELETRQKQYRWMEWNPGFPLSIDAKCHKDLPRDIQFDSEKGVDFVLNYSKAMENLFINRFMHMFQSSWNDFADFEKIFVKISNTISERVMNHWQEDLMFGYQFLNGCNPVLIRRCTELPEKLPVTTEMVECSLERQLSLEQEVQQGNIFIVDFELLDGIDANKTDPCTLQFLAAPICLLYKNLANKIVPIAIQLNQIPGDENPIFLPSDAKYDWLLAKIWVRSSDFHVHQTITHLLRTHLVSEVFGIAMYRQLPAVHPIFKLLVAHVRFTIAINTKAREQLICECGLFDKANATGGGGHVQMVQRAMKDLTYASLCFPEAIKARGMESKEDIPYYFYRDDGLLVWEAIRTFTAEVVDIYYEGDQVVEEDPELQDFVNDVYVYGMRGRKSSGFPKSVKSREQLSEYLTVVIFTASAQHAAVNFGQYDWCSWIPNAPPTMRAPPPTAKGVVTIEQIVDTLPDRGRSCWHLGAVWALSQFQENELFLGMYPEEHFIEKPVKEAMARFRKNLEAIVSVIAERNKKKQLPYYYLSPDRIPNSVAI
Assay: Activity of inhibiting lipoxygenase production in human whole blood (Table 3-1)
Format: cell-based
Conditions: 0.25 h, final 10^-5 M, A23187 25 μM, 37° C., read-out: Inhibitory ratio (%) LTB4
value.kind: inhibition at 10 µM (%)

Completed entries (count: 5):
COC(=O)CCCC(=O)N(O)Cc1ccc2ccccc2c1 | 60
COC(=O)CCCCCC(=O)N(O)c1ccc2ccccc2c1O | 39
COC(=O)CCCC(=O)N(O)Cc1ccc2ccccc2c1OC | 40
COC(=O)COCC(=O)N(O)c1ccc2ccccc2c1O | 24
COC(=O)c1cccc(C(=O)N(O)c2ccc3ccccc3c2O)c1 | 63

I: COC(=O)CCCCC(=O)N(O)c1ccc2ccccc2c1O
II: COC(=O)CCC(=O)N(O)Cc1ccc2ccccc2c1
INPUT: When the recorded inhibition at 10 µM values are compared, which is smaller: that of I or that of II ? Record your answer as the label of the chosen record.
OUTPUT: I
(I: 45%, II: 71%)

---

tested on: lipoxygenase; assay: Activity of inhibiting lipoxygenase production in human whole blood (Table 1-1); assay type: cell-based; conditions: final 10^-5 M, A23187 25 μM, 37° C., 15 min, 10 µM
Below, each of the molecules is paired with its reported Inhibitory ratio (%) 5-HETE value.
Write it as a number; the unit % goes unstated.

CON=C(CSc1ccc2cc(OC)ccc2c1)CC(=O)OC [Example 1-6] | 29
COC(=O)CCC(CSc1ccc2cc(O)ccc2c1)=NO [Example 1-11] | 56

What the record says about COC(=O)CCCC(=O)CSc1ccc2cc(O)ccc2c1 [Example 1-12] : Inhibitory ratio (%) 5-HETE is 6

Input O=C(O)CCCC(=O)CSc1ccc2cc(O)ccc2c1 [Example 1-14] . Output Inhibitory ratio (%) 5-HETE: 49
